Please respond with reported growth AUC normalised to DMSO control for every item in the list.
system: S. enterica typhimurium tolC KO; test: growth AUC normalised to DMSO control (median) (fraction of control); higher = less growth inhibition, active = hit call of the paper; conditions: 20 µM;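 further: active when median AUC fell below 0.1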
Counter-ions that a name gives are not always drawn.

// below: answered compounds
compound: c1ccc2c(c1)Nc1ccccc1S2
recorded value: 0.945 (inactive)
--
compound: CC(CCc1ccccc1)NC(C)C(O)c1ccc(O)cc1 (centres undefined)
recorded value: 0.991 (inactive)
--
compound: NCCCNCCSP(=O)(O)O
recorded value: 1.01 (inactive)

I have 6 compounds here; please give me growth AUC normalised to DMSO control for each one.
1. CC(=O)[C@H]1CC[C@H]2[C@@H]3CC[C@H]4C[C@H](O)CC[C@]4(C)[C@H]3C(=O)C[C@]12C
2. CC(C)(C)NCC(O)c1cc(Cl)c(N)c(Cl)c1 (centres undefined) [Clenbuterol hydrochloride]
3. CC(=O)OCC(=O)[C@H]1CC[C@H]2[C@@H]3CC[C@H]4C[C@H](O)CC[C@]4(C)[C@H]3C(=O)C[C@]12C [Alfadolone acetate]
4. CC(=O)NC1CCSC1=O (centres undefined)
5. C[C@]12CC[C@H](O)CC1=CC[C@@H]1[C@@H]2CC[C@]2(C)C(=O)CC[C@@H]12
6. NCCc1c[nH]c2ccc(O)cc12 [Serotonin hydrochloride]

1: 0.911 (inactive); 2: 0.992 (inactive); 3: 0.941 (inactive); 4: 1.01 (inactive); 5: 0.942 (inactive); 6: 0.998 (inactive)

Would you be so kind as to report growth AUC normalised to DMSO control for each listed record?
1. C=C1CC[C@@]2(O)[C@H]3Cc4ccc(O)c5c4[C@@]2(CCN3CC2CC2)[C@H]1O5 [Nalmefene hydrochloride]
2. CC(C)C[C@H]1C(=O)N2CCC[C@H]2[C@]2(O)O[C@](NC(=O)[C@@H]3C=C4c5cccc6[nH]c(Br)c(c56)C[C@H]4N(C)C3)(C(C)C)C(=O)N12 [Bromocryptine mesylate]
3. COc1cc([C@@H]2c3cc4c(cc3[C@H](O)[C@H]3COC(=O)[C@H]23)OCO4)cc(OC)c1OC
4. CN1[C@@H]2CC[C@H]1C[C@@H](OC1c3ccccc3CCc3ccccc31)C2 [Deptropine citrate]

1.01 (inactive)
0.994 (inactive)
0.996 (inactive)
0.942 (inactive)

Provide growth AUC normalised to DMSO control for all items below, preserving their order.
1. C[N+]12CCC(CC1)C(OC(=O)C(O)(c1ccccc1)c1ccccc1)C2 (centres undefined) [Clidinium bromide]
2. C[N+](C)(C)CCCCCCCCCC[N+](C)(C)C [Decamethonium bromide]
3. CC[N+]1(C)CCCC(OC(=O)C(O)(c2ccccc2)c2ccccc2)C1 (centres undefined) [Pipenzolate bromide]
4. O=[N+]([O-])O[C@H]1CO[C@H]2[C@@H]1OC[C@H]2O[N+](=O)[O-] [Isosorbide dinitrate]

1: 0.997 (inactive); 2: 1 (inactive); 3: 0.999 (inactive); 4: 1.01 (inactive)

Below is a list of compounds. For each, state its recorded growth AUC normalised to DMSO control.
1. CCC1(C2=NCCN2)Cc2ccccc2O1 (centres undefined) [Efaroxan hydrochloride]
2. C[C@H](N)[C@H](O)c1ccc(O)c(O)c1
3. CC1C=CC=CCCC=CC=CC=CC=CC(OC2OC(C)C(O)C(N)C2O)CC2OC(O)(CC(O)C(O)CCC(O)CC(O)CC(O)CC(=O)OC(C)C(C)C1O)CC(O)C2C(=O)O (centres undefined)

1. 0.999 (inactive)
2. 1 (inactive)
3. 1 (inactive)
